Tested on: MDA-MB-231
ASSAY NAME: NCI tumour cell line growth inhibition, 48 h
Activity calls are given as the source filed them. Cut-off read from the data, not from the text of the source: active = GI50 up to about 1.1 µM and inactive = higher.
READOUT NAME: GI50

- COMPOUND: "O=C(O)Cn1ncn(NC(=O)Cc2ccccc2)c1=S"
  RECORDED MEASUREMENT: "> 10 µM (inactive)"
- COMPOUND: "CC1(C)OC[C@H](COCOP2(=O)Oc3ccc4ccccc4c3-c3c(ccc4ccccc34)O2)O1"
  RECORDED MEASUREMENT: "15.7 µM (inactive)"
- COMPOUND: "CCCCCCCCCc1nn2c(Cc3ccccc3)nnc2s1"
  RECORDED MEASUREMENT: "24.5 µM (inactive)"
- COMPOUND: "CCCCN(CCCC)CC(=O)c1ccc2cc(Cl)c3ccccc3c2c1"
  RECORDED MEASUREMENT: "31.4 µM (inactive)"
- COMPOUND: "COc1ccc(-c2cc(-c3cc(F)c(Cl)cc3Cl)[nH]n2)cc1OC"
  RECORDED MEASUREMENT: "30.4 µM (inactive)"
- COMPOUND: "C[C@@H]1CC[C@H]2[C@H]1[C@H]1[C@@H](CC[C@]2(C)N=C=S)C1(C)C"
  RECORDED MEASUREMENT: "30.1 µM (inactive)"
- COMPOUND: "COC(=O)[C@H](CNC(=O)/C=C/c1ccc(OC(C)=O)c(OC(C)=O)c1)NC(=O)/C=C/c1ccc(OC(C)=O)c(OC(C)=O)c1"
  RECORDED MEASUREMENT: "> 100 µM (inactive)"
- COMPOUND: "Cc1ccc(S(=O)(=O)SC(C)(C)C)cc1"
  RECORDED MEASUREMENT: "24.7 µM (inactive)"
- COMPOUND: "N#CCN1c2ccccc2CCC1Cl (centres undefined)"
  RECORDED MEASUREMENT: "> 10 µM (inactive)"
- COMPOUND: "C=C(CC(=O)Nc1ccc(C(=O)OC)o1)C(=O)OC"
  RECORDED MEASUREMENT: "27.7 µM (inactive)"
- COMPOUND: "COc1cc(/C=C2\\CC/C(=C\\c3cc(OC)c(O)c(OC)c3)C2=O)cc(OC)c1O"
  RECORDED MEASUREMENT: "2.14 µM (inactive)"
- COMPOUND: "COc1ccc(CCN2COc3ccc4ccc(=O)oc4c3C2)cc1OC"
  RECORDED MEASUREMENT: "> 100 µM (inactive)"
- COMPOUND: "CC(=O)Oc1ccc(-c2cc3ccccc3oc2=O)cc1OC(C)=O"
  RECORDED MEASUREMENT: "28.6 µM (inactive)"
- COMPOUND: "O=C(O)C1C2C=CC(O2)C1C(=O)NCc1ccncc1 (centres undefined)"
  RECORDED MEASUREMENT: "> 100 µM (inactive)"
- COMPOUND: "CC1C2Cc3ccc(O)cc3C1(C)CCN2C (centres undefined)"
  RECORDED MEASUREMENT: "> 100 µM (inactive)"
- COMPOUND: "CCOC(=O)C1(O)C(=O)C2=C3C(=O)OC(C4OC(=O)c5c(c(O)c(O)c(O)c5C31)-c1c(cc(O)c(O)c1O)C(=O)OC1COC(=O)c3cc(O)c(O)c(O)c3-c3c(cc(O)c(O)c3O)C(=O)OC14)[C@@H]2O (some centres undefined)"
  RECORDED MEASUREMENT: "15.2 µM (inactive)"
- COMPOUND: "OC(CC(O)(C(F)(F)Cl)C(F)(F)Cl)c1ccccc1 (centres undefined)"
  RECORDED MEASUREMENT: "> 10 µM (inactive)"
- COMPOUND: "Cc1c2cccc-2ccc2c1[nH]c1ccccc12"
  RECORDED MEASUREMENT: "1.76 µM (inactive)"
- COMPOUND: "O=C(CN1c2ccccc2Sc2ccccc21)N1CCNCC1"
  RECORDED MEASUREMENT: "> 100 µM (inactive)"
- COMPOUND: "CC1=C/C(=C(/c2ccc(O)c(C)c2)c2ccccc2C(=O)O)C=CC1=O"
  RECORDED MEASUREMENT: "19.9 µM (inactive)"
- COMPOUND: "C=CC1(c2ccc(-c3ccccc3)cc2)OCCO1"
  RECORDED MEASUREMENT: "> 100 µM (inactive)"
- COMPOUND: "Fc1ccc(/C(=N/Cc2ccccc2)N2CCOCC2)cc1"
  RECORDED MEASUREMENT: "> 100 µM (inactive)"
- COMPOUND: "COc1cccc(NCC(=O)Nn2c(-c3ccccc3)nc3ccccc3c2=O)c1"
  RECORDED MEASUREMENT: "> 100 µM (inactive)"
- COMPOUND: "N/C(=N\\c1ccc(Cl)c(Cl)c1)c1ccccc1N"
  RECORDED MEASUREMENT: "25.3 µM (inactive)"
- COMPOUND: "O=C1C=CC(=O)c2cc(Sc3ccccc3)c(=O)ccc21"
  RECORDED MEASUREMENT: "17.9 µM (inactive)"
- COMPOUND: "CC(=O)C(C(C)=O)[C@@H]1OC(C)(C)O[C@@H]1[C@H]1COC(C)(C)O1"
  RECORDED MEASUREMENT: "> 100 µM (inactive)"
- COMPOUND: "O=C(Cc1nccc2c1[nH]c1ccccc12)OC1C#CCSCC#C/C=C\\1 (centres undefined)"
  RECORDED MEASUREMENT: "> 100 µM (inactive)"
- COMPOUND: "CN(C)CC(O)CNC(=O)Nc1ccccc1 (centres undefined)"
  RECORDED MEASUREMENT: "> 100 µM (inactive)"
- COMPOUND: "COC(=O)C(CC(C)C)NC(=O)C(NC(=O)c1ccc(-c2ccc(Cl)cc2Cl)o1)C(C)C (centres undefined)"
  RECORDED MEASUREMENT: "13.8 µM (inactive)"
- COMPOUND: "Cc1cn([C@@H]2C[C@](C)(CO)N(C)O2)c(=O)[nH]c1=O"
  RECORDED MEASUREMENT: "> 100 µM (inactive)"
- COMPOUND: "O=C1C(Cl)C2(CC(/C=C/c3ccccc3)=NN2c2cccc(S(=O)(=O)O)c2)N1c1nc2ccccc2s1 (centres undefined)"
  RECORDED MEASUREMENT: "12.2 µM (inactive)"
- COMPOUND: "CC(O)CCNC(=O)Nc1c(C(F)(F)F)cc(-c2ccccc2)[nH]c1=O (centres undefined)"
  RECORDED MEASUREMENT: "> 100 µM (inactive)"
- COMPOUND: "Cc1ncc([N+](=O)[O-])n1CCNC(=O)CCCn1cnc([N+](=O)[O-])n1"
  RECORDED MEASUREMENT: "> 100 µM (inactive)"
- COMPOUND: "CC[C@@H]1/C=C/C=C/C[C@H](C)[C@@H](O)[C@](C)(O)C(=O)[C@H](C)[C@@H](O)[C@H](C)C(=O)[C@H](C)[C@@H](O)[C@H](C)/C=C/C(=O)O[C@H]2[C@@H](C)[C@@H](CC1)O[C@@]1(CC[C@@H](C)[C@@H](CC(C)O)O1)[C@@H]2C (some centres undefined)"
  RECORDED MEASUREMENT: "1.83 µM (inactive)"
- COMPOUND: "O=C1C(Cl)=C(Nc2ccc(S(=O)(=O)O)cc2)C(=O)c2ccccc21"
  RECORDED MEASUREMENT: "60.7 µM (inactive)"
- COMPOUND: "O=C1C=CC(=O)c2c1ccc1c3ccccc3n(Cc3cccc([N+](=O)[O-])c3)c21"
  RECORDED MEASUREMENT: "24.2 µM (inactive)"
- COMPOUND: "COC(=O)/C=C\\C(C#N)(C#N)/N=C/c1ccc(Br)cc1"
  RECORDED MEASUREMENT: "4.08 µM (inactive)"
- COMPOUND: "N#C[BH2-][n+]1cn(C2CC(OP(=O)(O)OCC3OC(n4cnc5c(=O)[nH]c(N)nc54)CC3O)C(CO)O2)c2nc(N)[nH]c(=O)c21 (centres undefined)"
  RECORDED MEASUREMENT: "> 100 µM (inactive)"
- COMPOUND: "C[C@H](C(=O)N1C(=O)O[C@@H](c2ccccc2)[C@H]1C)[C@H](c1ccccc1)N(Cc1ccccc1)OC(=O)c1ccccc1"
  RECORDED MEASUREMENT: "94 µM (inactive)"
